# Method Notes: NCI Yeast Anticancer Drug Screen. Data for the sgs1 strain (AID 173);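 note: 0% = growth of vehicle-only control cultures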
# Test Context: S. cerevisiae sgs1 mutant, at 33.0 µM, stronger effect = higher value
About 79,000 compounds went through this panel and 15% of them were active in at least one assay; those are over-represented in the sample as a whole.
Outcome Measure: growth inhibition (%)
Field format: number, assumed %, no unit text.

Asked: Give recorded growth inhibition. COc1cc2ccnc(-c3c4ccccc4c(N)c4c(OC)c(OC)ccc34)c2cc1OC
Given back: 23

Asked: Give recorded growth inhibition. CC1SC2(C(=O)Nc3ccc(Cl)cc32)N(c2ccc(Cl)cc2)C1=O (stereo unspecified)
Given back: 98

Asked: Give recorded growth inhibition. O=C1CSC(c2cccc(Cl)c2)N1c1ccc(-c2ccc(-n3c(-c4ccccc4)nc4ccccc4c3=O)cc2)cc1 (stereo unspecified)
Given back: 39

Asked: Give recorded growth inhibition. CCOC1(c2cccc([N+](=O)[O-])c2)c2ccccc2Oc2ccccc21
Given back: 6

Asked: Give recorded growth inhibition. COc1ccc(C/C=N/Nc2ccc([N+](=O)[O-])cc2)cc1OC
Given back: 48

Asked: Give recorded growth inhibition. Nc1ccc2c(c1)C(=O)c1ccc(F)cc1-2
Given back: 2

----------
# Method Notes: NCI Yeast Anticancer Drug Screen. Data for the rad52 strain (AID 147);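 note: 0% = growth of vehicle-treated control cultures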
# Test Context: S. cerevisiae rad52 mutant growth inhibition; at 33.0 µM
# Experimental: Growth inhibition of yeast strains with defined genetic alterations is measured as a screen for potential anti-cancer activity. Selected strains with alterations in DNA damage repair or cell cycle control were exposed to compounds and growth inhibition was measured relative to vehicle treated controls. The strain used in this assay is rad52
About 79,000 compounds went through this panel and 15% of them were active in at least one assay; those are over-represented in the sample as a whole. Activity calls are given as the source filed them. Cut-off read from the data, not from the text of the source: active = growth inhibition above about 70%; inactive = the rest.
Valid outcomes are listed here; reply with one: active, inactive

Asked: Give the logged outcome of this assay for the following compound: COC(=O)/C=C(/C(=O)OC)C(Cl)(Cl)Cl
Given back: active

Asked: Give the logged outcome of this assay for the following compound: C[CH2][Sn]([CH2]C)([O]C(=O)C(N)Cc1ccccc1)[O]C(=O)C(N)Cc1ccccc1 (stereo not drawn)
Given back: inactive

Asked: Give the logged outcome of this assay for the following compound: CCOC(=N)c1ccc(O)c(OC)c1
Given back: inactive

Asked: Give the logged outcome of this assay for the following compound: CC1CC(C)(C)CC(OCCN2CCCCC2)(c2ccccc2)C1 (stereo not drawn)
Given back: inactive

Asked: Give the logged outcome of this assay for the following compound: Cc1cc(N(CCOS(C)(=O)=O)CCOS(C)(=O)=O)ccc1C=Nc1ccc(-c2csc(-c3ccccc3)n2)c(Cl)c1
Given back: active

Asked: Give the logged outcome of this assay for the following compound: CCOC(=O)[C@H]1Nc2ccc(OC)cc2C2c3ccccc3CC21 (stereo partly drawn)
Given back: inactive

Asked: Give the logged outcome of this assay for the following compound: CC[n+]1oc(C(=O)c2ccc(Cl)cc2)c(-c2ccccc2)c1-c1ccccc1.[Cl][Fe]([Cl])([Cl])[Cl]
Given back: inactive

Asked: Give the logged outcome of this assay for the following compound: N/C(=N/N=C/c1cc(Br)cc(Br)c1O)NO
Given back: active

Asked: Give the logged outcome of this assay for the following compound: Oc1ccc(O)c(Cc2ccccc2)c1
Given back: active

Asked: Give the logged outcome of this assay for the following compound: COc1ccc(/C=C/C(=O)c2ccccc2)cc1OC
Given back: inactive

Asked: Give the logged outcome of this assay for the following compound: Cc1nc2ccccc2nc1NNc1ccccc1
Given back: inactive

Asked: Give the logged outcome of this assay for the following compound: COc1nc2c(c(=O)n1C)N=C(c1ccccc1)[C@H](C(CC(=O)c1ccccc1)c1ccccc1)C(c1ccccc1)N2 (stereo partly drawn)
Given back: inactive

Asked: Give the logged outcome of this assay for the following compound: CN(CCN(C)Cc1ccccc1)Cc1ccccc1
Given back: inactive

Asked: Give the logged outcome of this assay for the following compound: COc1cc(CSc2ccc(O)cc2)cc(O)c1O
Given back: inactive

Asked: Give the logged outcome of this assay for the following compound: Cc1cc(C)c(NC(=S)NC(=O)c2ccccc2)cc1C
Given back: inactive

Asked: Give the logged outcome of this assay for the following compound: O=C(CC(C(=O)O)N1CCOCC1)c1ccccc1 (stereo not drawn)
Given back: inactive

Asked: Give the logged outcome of this assay for the following compound: O=[n+]1c2ccccc2n([O-])c2cc(Br)ccc21
Given back: active

Asked: Give the logged outcome of this assay for the following compound: O=P(NC1CCCCC1)(OCc1ccccc1)OCc1ccccc1
Given back: inactive

Asked: Give the logged outcome of this assay for the following compound: CC(C)CN(CC(C)C)C(=O)c1ccc(Cl)c(Cl)c1
Given back: active

Asked: Give the logged outcome of this assay for the following compound: O=C(O)c1cc2ccccc2c2c1C(=O)c1ccccc1-2
Given back: active

Asked: Give the logged outcome of this assay for the following compound: CC(C)CCCC(C)C1CCC2C3CCC4=CC(=O)/C(=C\O)CC4(C)C3CCC12C (stereo not drawn)
Given back: inactive

Asked: Give the logged outcome of this assay for the following compound: Cc1cc(C(C)(C)C)c(OCCCN2CCOCC2)c(C(C)(C)C)c1
Given back: inactive

Asked: Give the logged outcome of this assay for the following compound: O=[N+]([O-])/C=C/c1cc(Cl)c(/C=C/[N+](=O)[O-])cc1Cl
Given back: active

Asked: Give the logged outcome of this assay for the following compound: O=c1ccc2ccccc2c2ccccc12
Given back: active

Asked: Give the logged outcome of this assay for the following compound: CC(C)(C)[Si](C)(C)OCC1CCC(n2cnc3c(NC(=O)c4ccccc4)ncnc32)O1 (stereo not drawn)
Given back: inactive

Asked: Give the logged outcome of this assay for the following compound: CC12C(=O)OC(=O)C(c3ccccc31)c1ccccc12
Given back: inactive

Asked: Give the logged outcome of this assay for the following compound: Cc1cc(S(=O)(=O)Nc2nnc3cnc4ccccc4n23)c(S)cc1Cl
Given back: inactive

Asked: Give the logged outcome of this assay for the following compound: CCCCNC1CCC2(SCCS2)c2[nH]c3ccccc3c21 (stereo not drawn)
Given back: inactive

Asked: Give the logged outcome of this assay for the following compound: C/C(=N\Nc1ccc([N+](=O)[O-])cc1[N+](=O)[O-])c1sc(-n2nc(-c3ccccc3)cc2-c2ccccc2)nc1C
Given back: inactive

Asked: Give the logged outcome of this assay for the following compound: CC1CC[C@]2(C(=O)O)CCC3(C)C(=CC(=O)C4[C@@]5(C)CCC(=O)C(C)(C)C5CC[C@]43C)[C@@H]2[C@H]1C (stereo partly drawn)
Given back: active

Asked: Give the logged outcome of this assay for the following compound: CN(C)c1ccc(N=Nc2ccncc2)cc1
Given back: inactive

Asked: Give the logged outcome of this assay for the following compound: C=C(C(=C)n1nnc(C(=O)OC)c1C(=O)OC)n1nnc(C(=O)OC)c1C(=O)OC
Given back: inactive

Asked: Give the logged outcome of this assay for the following compound: CCOC(=O)CC1(C(=O)OCC)c2[nH]c3ccccc3c2CCN1Cc1ccccc1 (stereo not drawn)
Given back: inactive

Asked: Give the logged outcome of this assay for the following compound: Cc1c(C)c(C)c(CSC(=N)N)c(C)c1C
Given back: inactive

Asked: Give the logged outcome of this assay for the following compound: C[C@]12CC[C@H](O)CC1=CC[C@@H]1C2CC[C@]2(C)C(=O)NC(=O)CC12 (stereo partly drawn)
Given back: inactive

Asked: Give the logged outcome of this assay for the following compound: CC(=O)OC1CCC2(C)C(=CC(C3C=C4CC(OC(C)=O)CCC4(C)C4=C3C3CC5OC6(CCC(C)CO6)C(C)C5C3(C)CC4)C3=C2CCC2(C)C3CC3OC4(CCC(C)CO4)C(C)C32)C1 (stereo not drawn)
Given back: inactive

Asked: Give the logged outcome of this assay for the following compound: O=C1Nc2ccc(Br)cc2C1=Nc1ccc2c(c1)OCO2
Given back: inactive

Asked: Give the logged outcome of this assay for the following compound: Cc1cccc[n+]1C1CCc2c(ccc3ccccc23)C1=O (stereo not drawn)
Given back: inactive

Asked: Give the logged outcome of this assay for the following compound: CC(C)(C)C1=CC(=CC=C2C=CN(CCCCCCCCCCCO)C=C2)C=C(C(C)(C)C)C1=O
Given back: active

Asked: Give the logged outcome of this assay for the following compound: O=C(Nc1ccc(Cl)cc1)Nc1nnc2nc(C(C(=O)c3cccc([N+](=O)[O-])c3Cl)c3nc4nnc(NC(=O)Nc5ccc(Cl)cc5)n4[nH]c3=O)c(=O)[nH]n12
Given back: inactive

Asked: Give the logged outcome of this assay for the following compound: N#CC(C#N)=NNc1ccc(S(=O)(=O)O)cc1
Given back: inactive

Asked: Give the logged outcome of this assay for the following compound: CC(C)/C(Cl)=N\OC(=O)Nc1ccc(F)cc1F
Given back: inactive

Asked: Give the logged outcome of this assay for the following compound: CCc1ccc2c(c1)N(CC(C)CN(C)C)c1ccccc1S2 (stereo not drawn)
Given back: inactive
